Attribution: patent US20110044996A1

Entries and their measured kon follow.
target: T1, recombinant human GM-CSF (Peprotech) (human, UniProt P04141 18-144); assay: SPR (BIAcore); recombinant human GM-CSF coupled to CM5 chip, antibody injected at 66.7-4.17 nM
T1 construct: Commercial recombinant protein; also called granulocyte-macrophage colony stimulating factor
T1 sequence (P04141 18-144 limits assumed): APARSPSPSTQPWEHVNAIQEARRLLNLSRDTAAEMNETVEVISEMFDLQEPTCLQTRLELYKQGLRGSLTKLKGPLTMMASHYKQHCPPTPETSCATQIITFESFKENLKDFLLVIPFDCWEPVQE
Your answer should be a plain number; it is taken to be in M⁻¹ s⁻¹.

Please review the following examples before continuing.
hGM4/6 (antibody, V domains shown, Heavy h4/10 with human gamma 1 constant (hG1), light h4b with human kappa constant (hKa); also called h4K21-6) VH: QVQLQESGGGLVKPGGSLKLSCAASGFAFSAYDMSWVRQTPDKRLEWVAYISSGGSSFYYPDTVKGRFTISRDNAKNTLYLQMSSLKSEDTAMYYCARHLGFDYWGQGTMVTVSS VL: DVVMTQSPLSLPVTLGQPASISCRSSQSLVNSNGNTYLHWFQQRPGQSPRRLIYKVSNRFSGVPDRFSGSGSGTDFTLKISRVEAEDVGVYYCSQSTHVPPTFGQGTKLEIK	200000
hGM4/2 (antibody, V domains shown, Heavy h4/20 with human gamma 1 constant (hG1), light h4a with human kappa constant (hKa); also called h4K21-2) VH: EVQLVESGGGLVQPGGSLRLSCAASGFAFSAYDMSWVRQAPGKGLEWVSYISSGGSSFYYPDTVKGRFTISRDNAKNSLYLQMNSLRAEDTAVYYCARHLGFDYWGQGTLVTVSS VL: DVVMTQSPLSLPVTLGQPASISCRSSQSLVNSNGNTYLHWFQQRPGQSPRRLIYKVSNRFSGVPDRFSGSGSGTDFTLKISRVEAEDVGVYYCSQSTHVPPTFGGGTKVEIK	160000

Consider now this further binder.
For the binder hGM4/1 (antibody, V domains shown, Heavy h4/10 with human gamma 1 constant (hG1), light h4a with human kappa constant (hKa); also called h4K21-1; 4K21-1) VH: QVQLQESGGGLVKPGGSLKLSCAASGFAFSAYDMSWVRQTPDKRLEWVAYISSGGSSFYYPDTVKGRFTISRDNAKNTLYLQMSSLKSEDTAMYYCARHLGFDYWGQGTMVTVSS VL: DVVMTQSPLSLPVTLGQPASISCRSSQSLVNSNGNTYLHWFQQRPGQSPRRLIYKVSNRFSGVPDRFSGSGSGTDFTLKISRVEAEDVGVYYCSQSTHVPPTFGGGTKVEIK , report kon.
290000
